From: the supplement of paper PMC10567573

B1: SMOC2 (parent)
chain: PALETQPQGDEEDIASRYPTLWTE

- Variants of: B1
- protocol_summary: protein stability index of a GFP-peptide fusion (GPS, HEK-293T) (PSI 1-6); higher = more stable;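 also: lentivirally expressed fusions sorted by FACS into six bins by GFP to DsRed ratio, PSI derived from sequencing read proportions per bin multiplied by bin number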
- applied_conditions: c terminus: a fixed tail appended
Overview of recorded protein stability index for various variants
Enter a number only.

R17G : 4.71
T20K : 4.37
E11D : 4.21

Recorded protein stability index for `D13R` , please? 4.14

What do you get for `G9Y` ? 4.74

Thanks! And `Q6H` ? 4.73

Now the variant `T23Q` 4.43

Try this variant next: `E12M` 3.7
